# TARGET ENTITY: MMP2
# METHOD NOTES: metalloprotease panel inhibitors: MMPs, meprins, late-stage follow-up, selectivity assay for ADAM10 and ADAM17 inhibitor project, biochemical, QFRET, MMP1/2/8/9/10/13/14, Meprin A/B (AID 743473)
# TEST SETTINGS: QFRET peptide cleavage, MCA fluorescence
Listed below: IC50 values for each entry.
REPORTED ENDPOINT: IC50

{"MOLECULE": "O=C(O)CCC(=O)c1c[nH]c2ccccc12", "TARGET ENTITY": "MMP2", "REPORTED ENDPOINT": "IC50", "MEASURED": "> 100 µM"}
{"MOLECULE": "CCOc1ccc(NC(=O)CC2SC(=O)N(c3ccccc3)C2=O)cc1 (centres undefined)", "TARGET ENTITY": "MMP2", "REPORTED ENDPOINT": "IC50", "MEASURED": "4.7 µM"}
{"MOLECULE": "COc1cccc(C(=O)NNC(=O)C(=O)Nc2ccc(C)c(Cl)c2)c1", "TARGET ENTITY": "MMP2", "REPORTED ENDPOINT": "IC50", "MEASURED": "> 100 µM"}
{"MOLECULE": "O=C1NC(=O)C(Cc2ccc(Cl)cc2)(c2ccccc2)N1 (centres undefined)", "TARGET ENTITY": "MMP2", "REPORTED ENDPOINT": "IC50", "MEASURED": "> 100 µM"}
